These data points were gathered from ChEMBL document CHEMBL4725289.

Target: Patatin-like phospholipase domain-containing protein 2 (Mus musculus)
Sequence (Q8BJ56 whole entry): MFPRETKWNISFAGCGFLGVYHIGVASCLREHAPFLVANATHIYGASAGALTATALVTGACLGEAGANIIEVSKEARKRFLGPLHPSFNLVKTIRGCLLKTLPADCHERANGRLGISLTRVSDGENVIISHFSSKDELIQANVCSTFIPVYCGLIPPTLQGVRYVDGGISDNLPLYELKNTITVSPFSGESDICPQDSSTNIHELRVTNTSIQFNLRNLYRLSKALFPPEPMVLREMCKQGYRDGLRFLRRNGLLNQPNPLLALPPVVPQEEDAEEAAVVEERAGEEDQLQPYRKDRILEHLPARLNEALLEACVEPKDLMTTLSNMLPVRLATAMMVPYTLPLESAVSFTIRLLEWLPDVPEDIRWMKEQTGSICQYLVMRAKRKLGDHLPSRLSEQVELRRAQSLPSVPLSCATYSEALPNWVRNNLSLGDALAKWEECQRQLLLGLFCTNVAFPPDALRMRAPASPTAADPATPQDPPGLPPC
Assay: Inhibition of murine ATGL expressed in COS-7 cells
Type: cell-based
property: IC50

{"columns": ["molecule", "measured-value"],
 "data": [
  ["CCOC(=O)c1cccc(-c2ccc(CN3CCN(C)CC3)cc2)c1", "> 200 µM"],
  ["CN(C)c1ccc(-c2cccc(NC(=O)OCc3ccccc3)c2)cc1", "> 200 µM"],
  ["CCOc1ccc(-c2ccccc2)cc1", "> 200 µM"],
  ["CCCCCCOC(=O)c1cccc(-c2ccc(OCC)cc2)c1", "> 200 µM"],
  ["CCOC(=O)c1cccc(-c2ccncc2)c1", "> 200 µM"]
]}

====

Molecular target: Patatin-like phospholipase domain-containing protein 2 (Mus musculus) (UniProt Q8BJ56)
Assay: Inhibition of murine ATGL expressed in COS-7 cells at 200 uM relative to control
Format: cell-based
We begin with a simple list: items and their reported inhibition.
property: inhibition (%)

{"columns": ["molecule", "property", "measured-value"],
 "data": [
  ["CCOc1ccc(-c2cccc(C(=O)OCC(F)(F)F)c2)cc1", "inhibition", 71],
  ["COC(=O)Nc1cccc(-c2ccc(N(C)C)cc2)c1", "inhibition", 95],
  ["CCOc1ccc(-c2cccc(C(=O)NC)c2)cc1", "inhibition", 40],
  ["CN(C)c1ccc(-c2cccc(NC(=O)OCc3ccccc3)c2)cc1", "inhibition", 50]
]}

====

Biological target: Patatin-like phospholipase domain-containing protein 2 (Mus musculus) (UniProt Q8BJ56)
Experiment: Inhibition of murine ATGL expressed in COS-7 cells at 200 uM relative to control
Format: cell-based
We begin with a simple list: items and their reported inhibition.
property: inhibition (%)

{"columns": ["molecule", "test-target", "property", "measured-value"],
 "data": [
  ["CCOc1ccc(-c2cccc(N)c2)cc1", "Patatin-like phospholipase domain-containing protein 2 (Mus musculus) (UniProt Q8BJ56)", "inhibition", 65],
  ["CCOc1ccc(-c2cccc(C)c2)cc1", "Patatin-like phospholipase domain-containing protein 2 (Mus musculus) (UniProt Q8BJ56)", "inhibition", 54],
  ["CN(C)c1ccc(-c2cccc(N)c2)cc1", "Patatin-like phospholipase domain-containing protein 2 (Mus musculus) (UniProt Q8BJ56)", "inhibition", 70],
  ["CCNS(=O)(=O)c1cccc(-c2ccc(OCC)cc2)c1", "Patatin-like phospholipase domain-containing protein 2 (Mus musculus) (UniProt Q8BJ56)", "inhibition", 46],
  ["CCOC(=O)c1cccc(-c2ccc(C)cc2)c1", "Patatin-like phospholipase domain-containing protein 2 (Mus musculus) (UniProt Q8BJ56)", "inhibition", 63],
  ["CCOc1ccc(-c2cccc(C(=O)OCCOCCOC)c2)cc1", "Patatin-like phospholipase domain-containing protein 2 (Mus musculus) (UniProt Q8BJ56)", "inhibition", 43]
]}
